- Tested on: 569 E. faecium (GRE)
- Protocol Notes: MIC, broth microdilution in Meuller-Hinton broth (NCCLS)
- Format: cell-based
- Conditions: glycopeptide-resistant clinical isolate
Readout: MIC 569 E. faecium (GRE) (mg/L)

* CCCCCCCCOc1ccc(CNCC(=O)NC2(C)CC(OC3C(Oc4c5cc6cc4Oc4ccc(cc4Cl)C(O)C(NC(=O)C(CC(C)C)NC)C(=O)NC(CC(N)=O)C(=O)NC6C(=O)NC4C(=O)NC(C(=O)NC(C(=O)O)c6cc(O)cc(O)c6-c6cc4ccc6O)C(OC4CC(C)(N)C(O)C(C)O4)c4ccc(cc4)O5)OC(CO)C(O)C3O)OC(C)C2O)cc1 (stereo not drawn) [Compound 214] | 8
* CNC(CC(C)C)C(=O)NC1C(=O)NC(CC(N)=O)C(=O)NC2C(=O)NC3C(=O)NC(C(=O)NC(C(=O)O)c4cc(O)cc(O)c4-c4cc3ccc4O)C(O)c3ccc(c(Cl)c3)Oc3cc2cc(c3OC2OC(CO)C(O)C(O)C2OC2CC(C)(NC(=O)CNCc3ccc(F)cc3)C(O)C(C)O2)Oc2ccc(cc2Cl)C1O (stereo not drawn) [Compound 291] | 8
* CCCCc1ccc(CNCC(=O)NC2(C)CC(OC3C(Oc4c5cc6cc4Oc4ccc(cc4Cl)C(O)C(NC(=O)C(CC(C)C)NC)C(=O)NC(CC(N)=O)C(=O)NC6C(=O)NC4C(=O)NC(C(=O)NC(C(=O)NC(C)C67CC8CC(CC(C8)C6)C7)c6cc(O)cc(O)c6-c6cc4ccc6O)C(OC4CC(C)(N)C(O)C(C)O4)c4ccc(cc4)O5)OC(CO)C(O)C3O)OC(C)C2O)cc1 (stereo not drawn) [Compound 264] | 8
* CCCCCCCCOc1ccc(CNC(CCCN)C(=O)NC2(C)CC(OC3C(Oc4c5cc6cc4Oc4ccc(cc4Cl)C(O)C4NC(=O)C(NC(=O)C6NC(=O)C(CC(N)=O)NC(=O)C(NC(=O)C(CC(C)C)NC)C(O)c6ccc(c(Cl)c6)O5)c5ccc(O)c(c5)-c5c(O)cc(O)cc5C(C(=O)O)NC4=O)OC(CO)C(O)C3O)OC(C)C2O)cc1 (stereo not drawn) [Compound 241] | 16
* CNC(CC(C)C)C(=O)NC1C(=O)NC(CC(N)=O)C(=O)NC2C(=O)NC3C(=O)NC(C(=O)NC(C(=O)NC4C5CC6CC(C5)CC4C6)c4cc(O)cc(O)c4-c4cc3ccc4O)C(OC3CC(C)(N)C(O)C(C)O3)c3ccc(cc3)Oc3cc2cc(c3OC2OC(CO)C(O)C(O)C2OC2CC(C)(N)C(O)C(C)O2)Oc2ccc(cc2Cl)C1O (stereo not drawn) [Compound 213, 2-adamantanamino eremomycin] | 4
* CCCCc1ccc(CNCC(=O)NC2(C)CC(OC3C(Oc4c5cc6cc4Oc4ccc(cc4Cl)C(O)C(NC(=O)C(CC(C)C)NC)C(=O)NC(CC(N)=O)C(=O)NC6C(=O)NC4C(=O)NC(C(=O)NC(C(=O)NC6C7CC8CC(C7)CC6C8)c6cc(O)cc(O)c6-c6cc4ccc6O)C(OC4CC(C)(N)C(O)C(C)O4)c4ccc(cc4)O5)OC(CO)C(O)C3O)OC(C)C2O)cc1 (stereo not drawn) [Compound 263] | 8
* CNC(CC(C)C)C(=O)NC1C(=O)NC(CC(N)=O)C(=O)NC2C(=O)NC3C(=O)NC(C(=O)NC(C(=O)O)c4cc(O)cc(O)c4-c4cc3ccc4O)C(OC3CC(C)(N)C(O)C(C)O3)c3ccc(cc3)Oc3cc2cc(c3OC2OC(CO)C(O)C(O)C2OC2CC(C)(NC(=O)CNCc3ccc(-c4ccc(Cl)cc4)cc3)C(O)C(C)O2)Oc2ccc(cc2Cl)C1O (stereo not drawn) [Compound 44] | 8
* CNC(CC(C)C)C(=O)NC1C(=O)NC(CC(N)=O)C(=O)NC2C(=O)NC3C(=O)NC(C(=O)NC(C(=O)O)c4cc(O)cc(O)c4-c4cc3ccc4O)C(OC3CC(C)(N)C(O)C(C)O3)c3ccc(cc3)Oc3cc2cc(c3OC2OC(CO)C(O)C(O)C2OC2CC(C)(NC(=O)CNCc3ccc(OCc4ccccc4)cc3)C(O)C(C)O2)Oc2ccc(cc2Cl)C1O (stereo not drawn) [Compound 223] | 16
